Provenance of the data: PubChem BioAssay (NCATS)

- Assay Overview: qHTS of pediatric cancer cell lines to identify multiple opportunities for drug repurposing: Confirmatory screen for SK-N-MC cells (AID 1347111);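 further: cells exposed to compound for 48 h before the readout; nearly all actives have a fitted effect of over 70% in size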
- Condition Label: SK-N-MC cell viability; series mostly up to 45.9 µM
Results filed as inconclusive are left out. Calls of active or inactive are those of the source. The call rests on the fitted dose curve; in most records, active means well fitted cell-killing curve with a large enough effect; inconclusive means small, poorly fitted or top-dose-only effect; inactive means no such curve, though single readings can be large or run the other way.
Your response should consist of one outcome taken from TRUE = active, FALSE = inactive

Prompt: Hello, I am checking results. What call was entered for Oc1cc(-c2nc(-c3ccccc3)[nH]c2-c2ccncc2)ccc1Cl ?
Response: TRUE

Prompt: Hello, I am checking results. What call was entered for Cc1nc(NC(=O)N2CCC[C@@H]2C(N)=O)sc1-c1ccnc(C(C)(C)C(F)(F)F)c1 ?
Response: TRUE

Prompt: Hello, I am checking results. What call was entered for CN(C)c1ccc(C(=O)NCCCCCCC(=O)NO)cc1 ?
Response: TRUE

Prompt: Hello, I am checking results. What call was entered for CCCCC(=O)O[C@]1(C(=O)CO)[C@@H](C)C[C@H]2[C@@H]3CCC4=CC(=O)C=C[C@]4(C)[C@@]3(F)[C@@H](O)C[C@@]21C ?
Response: TRUE

Prompt: Hello, I am checking results. What call was entered for FC(F)c1nc2ccccc2n1-c1nc(N2CCOCC2)nc(N2CCOCC2)n1 ?
Response: TRUE

Prompt: Hello, I am checking results. What call was entered for COC[C@H](NC(=O)c1cnc(C)s1)C(=O)N[C@@H](COC)C(=O)N[C@@H](Cc1ccccc1)C(=O)[C@@]1(C)CO1 ?
Response: TRUE

Prompt: Hello, I am checking results. What call was entered for COc1cc(C[C@@H](CO)[C@H](CO)Cc2ccc(O)c(OC)c2)ccc1O ?
Response: TRUE

Prompt: Hello, I am checking results. What call was entered for COc1cc(O)c2c(c1)C1OC1C[C@H](O)[C@H](O)C(=O)C=CC[C@H](C)OC2=O (stereo partly drawn) ?
Response: TRUE

Prompt: Hello, I am checking results. What call was entered for N#Cc1c(NC(=O)c2cccc3ccccc23)sc2c1CCCC2 ?
Response: TRUE

Prompt: Hello, I am checking results. What call was entered for Cc1cnc(Nc2ccc(CN3CCOCC3)cc2)nc1Nc1cccc(S(=O)(=O)NC(C)(C)C)c1 ?
Response: TRUE

Prompt: Hello, I am checking results. What call was entered for CCN(CC)Cc1ccc2cc(COC(=O)Nc3ccc(C(=O)NO)cc3)ccc2c1 ?
Response: FALSE

Prompt: Hello, I am checking results. What call was entered for CC(=O)O[C@@]12CO[C@H]1C[C@H](O)[C@@]1(C)C(=O)[C@H](O)C3=C(C)[C@@H](OC(=O)C(O)[C@@H](NC(=O)OC(C)(C)C)c4ccccc4)C[C@@](O)([C@@H](OC(=O)c4ccccc4)[C@@H]21)C3(C)C (stereo partly drawn) ?
Response: TRUE

Prompt: Hello, I am checking results. What call was entered for COc1cc2ncnc(Nc3cccc(Br)c3)c2cc1OC ?
Response: TRUE

Prompt: Hello, I am checking results. What call was entered for Cc1cnc(Nc2ccc(N3CCN(C)CC3)cc2)nc1Nc1cccc(S(=O)(=O)NC(C)(C)C)c1 ?
Response: TRUE

Prompt: Hello, I am checking results. What call was entered for COc1cccc2c1C(=O)c1c(O)c3c(c(O)c1C2=O)C[C@@](O)(C(=O)CO)C[C@@H]3O[C@H]1C[C@H](N)[C@H](OC2CCCCO2)[C@H](C)O1 (stereo partly drawn) ?
Response: TRUE

Prompt: Hello, I am checking results. What call was entered for CNC(=O)Nc1ccc(-c2nc(N3CC4CCC(C3)O4)c3cnn(C4CCC5(CC4)OCCO5)c3n2)cc1 ?
Response: TRUE

Prompt: Hello, I am checking results. What call was entered for CC1(C)O[C@@H]2C[C@H]3[C@@H]4CCC5=CC(=O)C=C[C@]5(C)[C@@H]4[C@@H](O)C[C@]3(C)[C@]2(C(=O)CO)O1 ?
Response: FALSE

Prompt: Hello, I am checking results. What call was entered for CC(C)(O)Cn1c(NC(=O)c2ccc(-c3cn[nH]c3)s2)nc2cc(CN3CCOCC3)ccc21 ?
Response: TRUE

Prompt: Hello, I am checking results. What call was entered for Nc1nc2c(c(=O)[nH]1)N(C=O)[C@H](CNc1ccc(C(=O)N[C@@H](CCC(=O)O)C(=O)O)cc1)CN2 ?
Response: TRUE

Prompt: Hello, I am checking results. What call was entered for C[C@H]1[C@@H](OC(=O)CCC(=O)O)O[C@@H]2O[C@@]3(C)CC[C@@H]4[C@H](C)CC[C@@H]1[C@@]24OO3 ?
Response: TRUE

Prompt: Hello, I am checking results. What call was entered for CO[C@@H]1[C@@H](O)[C@H](O)[C@@H](n2c3c(Cl)cccc3c3c4c(c5c6cccc(Cl)c6[nH]c5c32)C(=O)NC4=O)O[C@@H]1CO ?
Response: TRUE

Prompt: Hello, I am checking results. What call was entered for COc1ccc(C[C@@H](C)[C@@H](C)Cc2ccc(OC)c(OC)c2)cc1OC ?
Response: TRUE

Prompt: Hello, I am checking results. What call was entered for CC(=O)N1CCN(c2ccc(OCc3nn(C)c(C)c3-c3cccc4c(CCCOc5cccc6ccccc56)c(C(=O)O)n(Cc5cccnc5)c34)cc2)CC1 ?
Response: TRUE

Prompt: Hello, I am checking results. What call was entered for CS(=O)(=O)N1CCc2c(-c3cnc(N)nc3)nc(N3CCOCC3)nc21 ?
Response: TRUE

Prompt: Hello, I am checking results. What call was entered for Oc1ccc(-c2ccc(-c3cc(Nc4cccc(CNC5CC5)c4)n[nH]3)cc2)c(O)c1 ?
Response: TRUE

Prompt: Hello, I am checking results. What call was entered for N#Cc1c(C2CCNCC2)cc(-c2c(O)cccc2OCC2CC2)nc1N ?
Response: FALSE

Prompt: Hello, I am checking results. What call was entered for C=CCNC1=C2C[C@@H](C)C[C@H](OC)[C@@H](O)[C@@H](C)C=C(C)[C@H](OC(N)=O)[C@@H](OC)C=CC=C(C)C(=O)NC(=CC1=O)C2=O ?
Response: TRUE

Prompt: Hello, I am checking results. What call was entered for C=CC(=O)Nc1cccc(Nc2nc(NC3CCC(N(C)C)CC3)nc3c2ncn3C(C)C)c1 (stereo not drawn) ?
Response: TRUE

Prompt: Hello, I am checking results. What call was entered for CCc1cc(C(C)=NOCc2ccc(C3CCCCC3)c(C(F)(F)F)c2)ccc1CN1CC(C(=O)O)C1 ?
Response: TRUE

Prompt: Hello, I am checking results. What call was entered for CCC(C(=O)O)C1CCC(C)C(C(C)C(O)C(C)C(=O)C(CC)C2OC3(C=CC(O)[C@@]4(CC[C@](C)(C5CC[C@@](O)(CC)C(C)O5)O4)O3)C(C)CC2C)O1 (stereo partly drawn) ?
Response: FALSE

Prompt: Hello, I am checking results. What call was entered for COc1cc([C@@H]2c3cc4c(cc3[C@@H](O[C@@H]3O[C@@H]5CO[C@@H](c6cccs6)O[C@@H]5[C@H](O)[C@@H]3O)[C@H]3COC(=O)[C@H]23)OCO4)cc(OC)c1O ?
Response: TRUE

Prompt: Hello, I am checking results. What call was entered for O=C(Nc1cc2cc[nH]c2cn1)c1ccccc1 ?
Response: TRUE

Prompt: Hello, I am checking results. What call was entered for O=C(O)C[C@H](O)C[C@H](O)C=Cc1c(C2CC2)nc2ccccc2c1-c1ccc(F)cc1 ?
Response: TRUE
